tested on: BDF1 mice, P388 leukemia ip, median survival T/C; assay: NCI In Vivo Anticancer Drug Screen. Data for tumor model P388 Leukemia (intraperitoneal) in B6D2F1 (BDF1) mice; details: endpoint: median survival time; dose: 50.0 mg/kg/injection; schedule: Q04DX003 (ip); vehicle: saline
Toxic doses and inconclusive results are not listed. The calls were made as follows: active = survival T/C of 150% or more; inactive = T/C below 125% in these data.
# output must be one of t for active, f for inactive

Which result was noted for this compound in the test: `CC1(C)N=C(N)N=C(N)N1c1ccc(CNC(=O)Nc2cccc(S(=O)(=O)F)c2)cc1`
t

// param item: `NC(CSCc1ccccc1)CSCc1ccccc1` ; yields the recorded call
f

Called result for `O=COCC(O)COC=O`
f

Would you mind telling me which call this test gave `COc1cc2c(cc1OC)CC[N+](C)=C2` ?
f

What call does the record list for CSc1ccc2c(c1)C(N1CCN(C)CC1)Cc1ccccc1S2 (stereo not given) ?
f

====

System: BDF1 mice, P388 leukemia ip, median survival T/C
Assay: NCI In Vivo Anticancer Drug Screen. Data for tumor model P388 Leukemia (intraperitoneal) in B6D2F1 (BDF1) mice
Details: endpoint: median survival time; dose: 50.0 mg/kg/injection; schedule: Q01DX009 (ip); vehicle: saline with Tween-80; higher = longer survival
Method: The antitumor activity of compounds was measured in mice bearing transplantable tumors. Survival or tumor size were measured and the results are expressed as the measurement made in the treated group (T) divided by the measurement made in the vehicle treated control group (C). The tumor model used in this assay is P388 Leukemia (intraperitoneal) in B6D2F1 (BDF1) mice
Inconclusive results and toxic doses are left out.
RESULT TYPE: T/C

Hello, I am looking for reported T/C with BDF1 mice, P388 leukemia ip, median survival T/C for `CC1=Nc2ccccc2N=C(C)C1` . Could you help?
90 % of control

BDF1 mice, P388 leukemia ip, median survival T/C / T/C / NC(=S)NCc1ccccc1C(O)c1ccccc1 (stereo unspecified) : value?
94 % of control

Provide the documented T/C with BDF1 mice, P388 leukemia ip, median survival T/C as the system for O=C1c2ccccc2C(O)(c2ccccc2)c2c(Cl)cccc21 (stereo unspecified)
104 % of control

# returns recorded T/C (system: BDF1 mice, P388 leukemia ip, median survival T/C) for CCOC(=O)C1C(C)OC(=O)C(Br)C1C (stereo unspecified)
97 % of control

Under BDF1 mice, P388 leukemia ip, median survival T/C: T/C value of `CCOC(=O)/C=C(\C)C(=O)c1ccc(OC)c(OC)c1OCc1ccccc1` ?
90 % of control

Any idea what T/C came out for `COC(=O)C1=C(\N2CCOCC2)CCCCC/C=C\1C(=O)OC` on BDF1 mice, P388 leukemia ip, median survival T/C?
100 % of control

====

system: BDF1 mice, P388 leukemia ip, median survival T/C; test: NCI In Vivo Anticancer Drug Screen. Data for tumor model P388 Leukemia (intraperitoneal) in B6D2F1 (BDF1) mice; conditions: endpoint: median survival time; dose: 100.0 mg/kg/injection; schedule: Q01DX009 (ip); vehicle: other; higher = longer survival
Toxic doses and inconclusive results are not listed.
Exercise: state measured T/C for each of the compounds provided.

Give BDF1 mice, P388 leukemia ip, median survival T/C T/C for COc1ccc(C(C(N)=O)N2CCCCC2)cc1 (configuration not stated)
115 % of control

Lookup: T/C / BDF1 mice, P388 leukemia ip, median survival T/C / `Cc1ccc(C(=O)CC(O)(C(F)(F)F)C(F)(F)F)cc1`
100 % of control

Recall the recorded T/C for `COc1cccc(C(=O)CC(O)(C(F)(F)F)C(F)(F)F)c1` with BDF1 mice, P388 leukemia ip, median survival T/C and state it.
91 % of control

Lab note: need T/C for `CCOC(=O)c1c(C)nc(C)c(C(=O)OCC)c1-c1cccnc1` on BDF1 mice, P388 leukemia ip, median survival T/C, anyone have it?
110 % of control

# returns recorded T/C (system: BDF1 mice, P388 leukemia ip, median survival T/C) for `CSc1cc(C)c(O)c(CO)c1`
100 % of control

T/C of `COc1ccc(Br)c(C=O)c1OS(=O)(=O)c1ccc(C)cc1` on BDF1 mice, P388 leukemia ip, median survival T/C?
94 % of control

Kindly state the measured T/C obtained for O=S(c1ccccc1)C1Cc2ccccc2C1Cl (configuration not stated) with BDF1 mice, P388 leukemia ip, median survival T/C.
107 % of control
